Would you mind telling me the reported kon of each entry?
studyTarget: T1, human LAG-3 ECD (antigen protein of the affinity test) (human, UniProt P18627 23-450)
T1 sequence: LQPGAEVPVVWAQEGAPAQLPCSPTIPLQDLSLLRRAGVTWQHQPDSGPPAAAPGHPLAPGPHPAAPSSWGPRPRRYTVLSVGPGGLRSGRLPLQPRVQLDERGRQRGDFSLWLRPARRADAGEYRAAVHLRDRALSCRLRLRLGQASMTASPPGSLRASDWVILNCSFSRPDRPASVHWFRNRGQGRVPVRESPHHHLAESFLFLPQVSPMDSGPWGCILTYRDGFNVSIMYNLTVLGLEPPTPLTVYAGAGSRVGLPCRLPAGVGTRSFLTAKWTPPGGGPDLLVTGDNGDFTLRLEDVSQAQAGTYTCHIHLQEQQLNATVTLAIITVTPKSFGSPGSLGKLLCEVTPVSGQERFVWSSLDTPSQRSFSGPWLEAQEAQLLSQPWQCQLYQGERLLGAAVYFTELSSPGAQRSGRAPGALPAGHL
assayOverview: SPR (CM5 chip), antibody captured by anti-human Fc IgG, antigen protein in flow, 1:1 model
Protocol: First, anti-human Fc IgG was immobilized on the surface of the CM5 chip to 6000-10000 RU by amino coupling method, with FC1 as the reference channel. The coupling process was as follows: a freshly prepared 1:1 mixture of 50 mM NHS and 200 mM EDC was activated for 7 minutes, then injected with 10-50 ug/ml anti-human Fc IgG diluted in 10 mM sodium acetate ph5.0 buffer. […] The dissociation equilibrium rate constant (KD) was calculated according to the following formula: KD=kd/ka. […]
Give the number; M⁻¹ s⁻¹ is assumed, so skip it.

Return kon (reported value) for this binder: 556F6B8-3 (D→E) hot-spot mutated humanized antibody (antibody, V domains shown) VH: QVQLQESGPGLVKPSETLSLTCTVSGFSLIKYGVHWIRQPPGKGLEWIGVIWRGGITDYNAAFMSRVTISKDTSKSQVSLKLSSVTAADTAVYYCARWEGPLAMDYWGQGTTVTVSS VL: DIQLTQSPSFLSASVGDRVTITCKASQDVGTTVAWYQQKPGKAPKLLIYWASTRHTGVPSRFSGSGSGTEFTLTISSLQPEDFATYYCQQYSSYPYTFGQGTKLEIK
115000

Return kon (reported value) for this binder: 405B8H3 mouse-human chimeric antibody (antibody, V domains shown, also called mAb103-405B8H3) VH: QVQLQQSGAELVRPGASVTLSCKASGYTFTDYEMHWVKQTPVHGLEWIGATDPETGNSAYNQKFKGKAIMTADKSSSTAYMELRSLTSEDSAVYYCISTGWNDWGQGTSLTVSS VL: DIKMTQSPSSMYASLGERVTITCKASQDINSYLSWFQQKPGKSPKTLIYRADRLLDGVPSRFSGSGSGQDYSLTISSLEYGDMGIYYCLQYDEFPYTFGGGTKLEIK
52800

Return kon (reported value) for this binder: 405B8H3-1 (D→E) hot-spot mutated humanized antibody (antibody, V domains shown) VH: QVQLVQSGAEVKKPGASVKVSCKASGYTFTDYEMHWVRQAPGQGLEWMGATDPETGNSAYNQKFKGRVTMTRDTSTSTVYMELSSLRSEDTAVYYCISTGWNDWGQGTTVTVSS VL: DIQMTQSPSSLSASVGDRVTITCKASQDINSYLSWFQQKPGKAPKSLIYRADRLLEGVPSRFSGSGSGTDFTLTISSLQPEDFATYYCLQYDEFPYTFGQGTKLEIK
77500

Return kon (reported value) for this binder: 556F6B8 mouse-human chimeric antibody (antibody, V domains shown, also called mAb123-556F6B8) VH: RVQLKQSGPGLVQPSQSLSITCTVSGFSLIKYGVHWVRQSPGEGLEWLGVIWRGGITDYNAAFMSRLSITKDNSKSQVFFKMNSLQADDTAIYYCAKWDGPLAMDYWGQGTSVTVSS VL: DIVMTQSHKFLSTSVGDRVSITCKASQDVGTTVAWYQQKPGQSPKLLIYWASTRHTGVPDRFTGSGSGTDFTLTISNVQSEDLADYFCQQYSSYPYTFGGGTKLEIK
162000
